Listing of recorded MIC (μg/mL) C. neoformans by entry.
System: C. neoformans
TEST CONDITIONS: RPMI1640 broth, 35° C., 72 hours, visual reading; expressed as a range value
MEASUREMENT TYPE: MIC (μg/mL) C. neoformans

                                   compound           measurement_type     measured
0  CCCCC(NC)C(=O)NCCc1ccc(-c2ccc(Cl)c(Cl)c2)cc1.Cl (racemic)  MIC (μg/mL) C. neoformans  0.5~4 μg/mL
1  CCCC(N)C(=O)NCc1ccc(-c2ccc(Cl)c(Cl)c2)cc1.Cl (racemic)  MIC (μg/mL) C. neoformans    2~8 μg/mL
2  CCCC(N)C(=O)NCCc1ccc(-c2ccc(Cl)c(Cl)c2)cc1.Cl (racemic)  MIC (μg/mL) C. neoformans  0.5~4 μg/mL
3  CCCCC(N)C(=O)NCc1ccc(-c2ccc(OC(F)(F)F)cc2)cc1.Cl (racemic)  MIC (μg/mL) C. neoformans   4~16 μg/mL
4  CCCCC(N)C(=O)NCc1ccc(-c2ccc(C(F)(F)F)cc2)cc1.Cl (racemic)  MIC (μg/mL) C. neoformans   4~16 μg/mL
5  CCCC(NC)C(=O)NCCc1ccc(-c2ccc(Cl)c(Cl)c2)cc1.Cl (racemic)  MIC (μg/mL) C. neoformans    2~8 μg/mL
6  CCCCC(N)C(=O)NCCc1ccc(-c2ccc(C(F)(F)F)cc2)cc1.Cl (racemic)  MIC (μg/mL) C. neoformans    2~8 μg/mL
7  CCCCC(NC)C(=O)NCCc1ccc(-c2ccc(OC(F)(F)F)cc2)cc1.Cl (racemic)  MIC (μg/mL) C. neoformans    2~8 μg/mL

* * *

Test system: B. subtilis (+)
TEST: Antibacterial MIC test (CLSI)
Format: cell-based
TEST CONDITIONS: MHB liquid medium, 37° C., 24 hours
MEASUREMENT TYPE: MIC B. subtilis (+) (µg/mL)

>>> df
                                   compound  measured
0  CCCCC(NC)C(=O)NCCc1ccc(-c2ccc(Cl)c(Cl)c2)cc1.Cl (racemic) [Compound 85]        16
1  CCC(N)C(=O)NCCc1ccc(-c2ccc(Cl)c(Cl)c2)cc1.Cl (racemic) [Compound 73]         8
2  CCCC(N)C(=O)NCCc1ccc(-c2ccc(Cl)c(Cl)c2)cc1.Cl (racemic) [Compound 74]         8
3  CCCCC(NC)C(=O)NCCc1ccc(-c2ccc(OC(F)(F)F)cc2)cc1.Cl (racemic) [Compound 91]        16

* * *

Tested on: B. subtilis (+)
TEST: Antibacterial MIC test (CLSI)
Type: cell-based
TEST CONDITIONS: MHB liquid medium, 37° C., 24 hours
MEASUREMENT TYPE: MIC B. subtilis (+) (µg/mL)

>>> df
                                   compound     measurement_type  readout_units  comparison_sign  measured
0  CCCCC(N)C(=O)NCCc1ccc(-c2ccc(Cl)c(Cl)c2)cc1.Cl (racemic) [Compound 75]  MIC B. subtilis (+)          µg/mL                =         8
1  CCCCC(N)C(=O)NCc1ccc(-c2ccc(Cl)c(Cl)c2)cc1.Cl (racemic) [Compound 46]  MIC B. subtilis (+)          µg/mL                =         8
2  CCCC(N)C(=O)Nc1ccc(-c2ccc(Cl)c(Cl)c2)cc1.Cl (racemic) [Compound 30]  MIC B. subtilis (+)          µg/mL                =        16
3  CCCCC(NC)C(=O)NCCc1ccc(-c2ccc(C(F)(F)F)cc2)cc1.Cl (racemic) [Compound 88]  MIC B. subtilis (+)          µg/mL                =        32
4  CCCCC(N)C(=O)Nc1ccc(-c2ccc(Cl)c(Cl)c2)cc1.Cl (racemic) [Compound 31]  MIC B. subtilis (+)          µg/mL                <         4
5  CCC(N)C(=O)NCCc1ccc(-c2ccc(OC(F)(F)F)cc2)cc1.Cl (racemic) [Compound 79]  MIC B. subtilis (+)          µg/mL                =        16
6  CCC(NC)C(=O)NCCc1ccc(-c2ccc(OC(F)(F)F)cc2)cc1.Cl (racemic) [Compound 89]  MIC B. subtilis (+)          µg/mL                =        16
7  CCC(N)C(=O)Nc1ccc(-c2ccc(Cl)c(Cl)c2)cc1.Cl (racemic) [Compound 29]  MIC B. subtilis (+)          µg/mL                <         4

* * *

Tested on: S. epidermidis (+)
TEST CONDITIONS: MHB liquid medium, 37° C., 24 hours
Experimental: The antibacterial activities against Gram-positive bacteria, Gram-negative bacteria or multi-drug resistant bacteria were evaluated for the compounds of the present invention. The MIC test was conducted in accordance CLSI guidelines. […] Subsequently, bacterial cells were incubated at 37° C. for 24 hours, and then the MICs (μg/ ? ) were determined by visual reading and optical density detection at 600 nm (OD600). […]
MEASUREMENT TYPE: MIC S. epidermidis (+) (µg/mL)

                                    compound  comparison_sign  measured
 0  CCCCC(NC)C(=O)Nc1ccc(-c2ccc(Cl)c(Cl)c2)cc1.Cl (racemic)                <         4
 1  CCC(N)C(=O)NCCc1ccc(-c2ccc(C(F)(F)F)cc2)cc1.Cl (racemic)                =        16
 2  CCCCC(NC)C(=O)NCCc1ccc(-c2ccc(C(F)(F)F)cc2)cc1.Cl (racemic)                =         8
 3  CCCC(NC)C(=O)NCCc1ccc(-c2ccc(Cl)c(Cl)c2)cc1.Cl (racemic)                =        16
 4  CCCCC(N)C(=O)Nc1ccc(-c2ccc(Cl)c(Cl)c2)cc1.Cl (racemic)                <         4
 5  CCCC(N)C(=O)NCCc1ccc(-c2ccc(Cl)c(Cl)c2)cc1.Cl (racemic)                =         8
 6  CCCCC(N)C(=O)NCc1ccc(-c2ccc(Cl)c(Cl)c2)cc1.Cl (racemic)                =         8
 7  CCCC(NC)C(=O)Nc1ccc(-c2ccc(Cl)c(Cl)c2)cc1.Cl (racemic)                <         4
 8  CCCCC(N)C(=O)NCCc1ccc(-c2ccc(Cl)c(Cl)c2)cc1.Cl (racemic)                =         8
 9  CCC(N)C(=O)NCCc1ccc(-c2ccc(Cl)c(Cl)c2)cc1.Cl (racemic)                =         8
10  CCCCC(N)C(=O)NCCc1ccc(-c2ccc(OC(F)(F)F)cc2)cc1.Cl (racemic)                =         8
11  CCCC(NC)C(=O)NCc1ccc(-c2ccc(Cl)c(Cl)c2)cc1.Cl (racemic)                =        16
12  CCCCC(NC)C(=O)NCCc1ccc(-c2ccc(Cl)c(Cl)c2)cc1.Cl (racemic)                =        16
13  CCCCC(N)C(=O)NCCc1ccc(-c2ccc(C(F)(F)F)cc2)cc1.Cl (racemic)                =         8
14  CCC(N)C(=O)NCCc1ccc(-c2ccc(OC(F)(F)F)cc2)cc1.Cl (racemic)                =         8
15  CCC(NC)C(=O)NCCc1ccc(-c2ccc(C(F)(F)F)cc2)cc1.Cl (racemic)                =        16
16  CCC(NC)C(=O)Nc1ccc(-c2ccc(Cl)c(Cl)c2)cc1.Cl (racemic)                <         4
17  CCC(N)C(=O)Nc1ccc(-c2ccc(Cl)c(Cl)c2)cc1.Cl (racemic)                <         4
18  CCCCC(NC)C(=O)NCCc1ccc(-c2ccc(OC(F)(F)F)cc2)cc1.Cl (racemic)                <         4
19  CCC(NC)C(=O)NCCc1ccc(-c2ccc(OC(F)(F)F)cc2)cc1.Cl (racemic)                =        16
20  CCCC(N)C(=O)Nc1ccc(-c2ccc(Cl)c(Cl)c2)cc1.Cl (racemic)                =        16
